Settings: human gut metagenome, 24 h, 2 µM; note: call rule not given here
Readout name: Bacterial Biotransformation

Below, each entry is followed by its recorded Bacterial Biotransformation result.
>>> value_observed("COc1ccccc1OCC(O)COC(N)=O (centres undefined)")
"Compound NOT metabolized"
>>> value_observed("Cc1ccc(/C(=C\\CN2CCCC2)c2ccccn2)cc1")
"Compound NOT metabolized"
>>> value_observed("Cc1nc(-c2ccc(OCC(C)C)c(C#N)c2)sc1C(=O)O")
"Compound metabolized"
>>> value_observed("CCCc1nc2c(C)cc(-c3nc4ccccc4n3C)cc2n1Cc1ccc(-c2ccccc2C(=O)O)cc1")
"Compound metabolized"
>>> value_observed("CN/C(=N/CCSCc1nc[nH]c1C)NC#N")
"Compound metabolized"
>>> value_observed("COc1ccc(CCN(C)CCCC(C#N)(c2ccc(OC)c(OC)c2)C(C)C)cc1OC (centres undefined)")
"Compound metabolized"
>>> value_observed("CCc1nc(N)nc(N)c1-c1ccc(Cl)cc1")
"Compound metabolized"
>>> value_observed("CN(C)CCC=C1c2ccccc2C=Cc2ccccc21")
"Compound metabolized"
>>> value_observed("Cc1nc2n(c(=O)c1CCN1CCC(c3noc4cc(F)ccc34)CC1)CCCC2")
"Compound metabolized"
>>> value_observed("Cc1ccccc1N1C(=O)c2cc(S(N)(=O)=O)c(Cl)cc2NC1C (centres undefined)")
"Compound metabolized"

Input line: Consider the compound shown here: CC(CN(C)C)CN1c2ccccc2CCc2ccccc21.O=C(O)/C=C\C(=O)O (centres undefined) [TRIMIPRAMINE MALEATE] What is its recorded Bacterial Biotransformation?
Output line: Compound NOT metabolized

Input line: Consider the compound shown here: `COc1cc2c(c(OC)c1OC)-c1ccc(OC)c(=O)cc1[C@@H](NC(C)=O)CC2` What is its recorded Bacterial Biotransformation?
Output line: Compound metabolized

----------
Test: The drug is tested on WLS-098 corresponding to human gut metagenome with ENA study accession number: PRJEB37062 and ENA sample accession number: ERS12561754 for biotransformation under anaerobic condition. The drug concentrations were measured over 9 timepoints collected between 0 and 24 hours of incubation by liquid-chromatography-coupled mass spectrometry (LC–MS)
Conditions: 2 µM
Readout name: Bacterial Biotransformation

Below, each entry is followed by its recorded Bacterial Biotransformation result.
>>> value_observed("CCOC(=O)[C@H](CCc1ccccc1)N[C@@H](C)C(=O)N1[C@H](C(=O)O)C[C@@H]2CCC[C@@H]21")
"Compound metabolized"
>>> value_observed("C=CCc1ccccc1OCC(O)CNC(C)C (stereo unspecified)")
"Compound metabolized"
>>> value_observed("CC(C)NCC(O)COc1ccc(COCCOC(C)C)cc1.CC(C)NCC(O)COc1ccc(COCCOC(C)C)cc1.O=C(O)/C=C/C(=O)O (stereo unspecified) [BISOPROLOL FUMARATE]")
"Compound metabolized"
>>> value_observed("CC(C)N(CCC(C(N)=O)(c1ccccc1)c1ccccn1)C(C)C.O=P(O)(O)O (stereo unspecified) [DISOPYRAMIDE PHOSPHATE]")
"Compound metabolized"
>>> value_observed("CC(CN(C)C)CN1c2ccccc2CCc2ccccc21.O=C(O)/C=C\\C(=O)O (stereo unspecified) [TRIMIPRAMINE MALEATE]")
"Compound metabolized"
>>> value_observed("Cc1nc2n(c(=O)c1CCN1CCC(c3noc4cc(F)ccc34)CC1)CCCC2O (stereo unspecified)")
"Compound metabolized"
>>> value_observed("Cc1ccc(/C(=C\\CN2CCCC2)c2ccccn2)cc1")
"Compound NOT metabolized"
>>> value_observed("CN1CCOC(c2ccccc2)c2ccccc2C1 (stereo unspecified)")
"Compound metabolized"

Input line: Consider the compound shown here: `Cc1ccnc2c1NC(=O)c1cccnc1N2C1CC1` What is its recorded Bacterial Biotransformation?
Output line: Compound metabolized

Input line: Consider the compound shown here: C[C@@H](CO)NC(=O)[C@@H]1C=C2c3cccc4[nH]cc(c34)C[C@H]2N(C)C1.O=C(O)/C=C\C(=O)O [ERGONOVINE MALEATE] What is its recorded Bacterial Biotransformation?
Output line: Compound NOT metabolized

Input line: Consider the compound shown here: `O=c1[nH]c2ccccc2n1CCCN1CCC(n2c(=O)[nH]c3cc(Cl)ccc32)CC1` What is its recorded Bacterial Biotransformation?
Output line: Compound NOT metabolized
